Taken from patent US8148391B2.

- system tested: c-Met (cytoplasmic domain) (Homo sapiens)
- Construct: 10 ng/mL c-Met (cytoplasmic domain, Invitrogen Corporation #PV3143); purchased Invitrogen Corporation PV3143
- Sequence (P08581 956-1390 limits assumed): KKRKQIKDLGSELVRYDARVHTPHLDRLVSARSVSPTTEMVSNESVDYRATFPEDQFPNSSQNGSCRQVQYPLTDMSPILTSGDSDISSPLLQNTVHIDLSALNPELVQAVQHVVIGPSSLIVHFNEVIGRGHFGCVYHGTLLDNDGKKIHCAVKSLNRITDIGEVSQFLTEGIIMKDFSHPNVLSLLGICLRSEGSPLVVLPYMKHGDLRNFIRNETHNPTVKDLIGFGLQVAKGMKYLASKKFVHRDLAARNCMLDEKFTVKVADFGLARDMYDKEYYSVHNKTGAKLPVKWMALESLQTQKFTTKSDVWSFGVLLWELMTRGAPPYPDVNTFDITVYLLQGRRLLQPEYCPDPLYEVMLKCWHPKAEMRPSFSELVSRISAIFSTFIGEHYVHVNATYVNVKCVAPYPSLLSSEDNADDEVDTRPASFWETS
- method summary: c-Met Kinase Assay (same methods as for ALK, with modifications)
- Format: biochemical
- setup conditions: c-Met kinase inhibition, 1 μM ATP; read-out: cMet Activity
- Experimental: Briefly, each 96-well plate was coated with 100 μL/well of 10 μg/mL substrate (phospholipase C-γ) in Tris-buffered saline (TBS). […] The reaction was initiated by adding enzyme (30 ng/ml ALK) and was allowed to proceed at 37° C. for 15 minutes. Detection of the phosphorylated product was performed by adding 100 μl/well of Eu-N1 labeled PT66 antibody (Perkin Elmer # AD0041). Data analysis was performed using ActivityBase (IDBS, Guilford, UK). […]
Listing: IC50 of selected compounds

Some entries whose results are on file:
compound: CNCc1ccccc1Nc1nc(Nc2ccc3c(c2)CN(C)C(=O)CC3)ncc1Cl [Example 1808]
IC50: < 100 nM
--
compound: CNC(=O)c1scc(C)c1Nc1nc(Nc2ccc3c(c2)-n2ccnc2CCC3)ncc1Cl [Example 1838]
IC50: < 100 nM
--
compound: CNC(=O)c1ccccc1Nc1nc(Nc2ccc3c(c2)N(C(C)=O)CCCO3)ncc1Cl [Example 1703]
IC50: < 100 nM

Recorded IC50 for COCCN1CCc2ccc(Nc3ncc(Cl)c(Nc4ccccc4S(=O)(=O)N4CCC(O)C4)n3)cc2CC1 (stereo not drawn) [Example 1492] on c-Met (cytoplasmic domain) (Homo sapiens) was < 100 nM

Recorded IC50 for C#CCNC(=O)c1cccc(F)c1Nc1nc(Nc2ccc3c(c2)N(C(=O)CN(C)C)CCCC3(C)C)ncc1Cl [Example 1631] on c-Met (cytoplasmic domain) (Homo sapiens) was 100 to 1000 nM

Recorded IC50 for C=CCOc1cc(N2CCOCC2)cc(F)c1Nc1nc(Nc2ccc3c(c2)CCOC(=O)N3C)ncc1Cl [Example 1700] on c-Met (cytoplasmic domain) (Homo sapiens) was 1000 to 10000 nM
